# System: RXF 393
# assay_protocol: NCI tumour cell line growth inhibition, 48 h
Active and inactive are the calls of the source. Cut-off read from the data, not from the text of the source: active = GI50 up to about 1.1 µM and inactive = higher.
The reply should name one outcome from T for active, F for inactive

Solved cases below.
molecule	label
CN(CC#N)C1CCCC[C@H]1O (stereo not given in full)	F
O=C1C(c2c(O)[nH]c3ccc(I)cc23)=Nc2ccccc21	F
COc1ccc(C(C#N)NC23CC4CC(CC(C4)C2)C3)cc1OC (stereo not given)	F
Clc1ccccc1NN(Cc1ccccn1)c1ccccc1Cl	F
OC1(C(Sc2cc(C(F)(F)F)cc(C(F)(F)F)c2)Sc2cc(C(F)(F)F)cc(C(F)(F)F)c2)C=CCCC1 (stereo not given)	F

Short answer needed: outcome of this test for NCCCCNCCCNC(=O)CNC(=O)CC(O)C(N)CCCC(NC(=O)C(CN)NC(=O)C(O)CNC(=O)CC(N)c1ccc(O)cc1)C(=O)O (stereo not given) ? F

What call does the record list for Cc1cccc(C)c1NC(=O)CCC/C(CC(=O)c1ccc(F)cc1)=N\NC(=O)C(=O)NN ? F

What did this assay record as the result for CC(=O)OCc1ccc2oc(=O)c(C(=O)Oc3cccc(Cl)c3)cc2c1 ? F

What did this assay record as the result for O=C1OCC2C1C1c3ccccc3C(O)c3ccccc3C21 (stereo not given) ? F

Assay result, entry Nc1ccc(-c2nc3cc(F)ccc3s2)cc1I — outcome? F

// param item: Cn1c(=O)c2[nH]c(C3CC(=O)CC(c4nc5c([nH]4)c(=O)n(C)c(=O)n5C)N3)nc2n(C)c1=O (stereo not given) ; yields the recorded call F

For CN(NC(=O)c1cccs1)C1=NCCCCN1 , which call appears in the assay record? F

Any idea what this test logged for CC1=N/C(=C\c2ccc(/C=C3/N=C(C)OC3=O)cc2)C(=O)O1 ? F
